Test system: Pseudomonas aeruginosa
Assay: Antibacterial activity against Pseudomonas aeruginosa 27853 assessed as inhibition of bacterial growth at 256 ug/ml measured after 25 hrs by absorbance based assay
Type: functional, organism-based
Details: dose 256.0 µg/ml
Active and inactive are the calls of the source. No cut-off for these calls is given here.
Use one of these outcomes when replying: active, inactive

Ask | # outcome recorded in this test, key = `C=C1OC(=O)C(CNC(=O)c2ccc(F)cc2)=C1c1ccc(F)cc1`
Reply | inactive

Ask | # outcome recorded in this test, key = `O=C1C=C(Br)/C(=C/Br)O1`
Reply | active

Ask | # outcome recorded in this test, key = `C=C1C(c2ccc(F)cc2)=C(CNC(=O)c2ccc(C)cc2)C(=O)N1c1ccc(C)cc1`
Reply | inactive
